Parameter 'readout' = pIC50; parameter 'system' = Heat shock protein HSP 90-beta (Homo sapiens).
Sequence (P08238 whole entry): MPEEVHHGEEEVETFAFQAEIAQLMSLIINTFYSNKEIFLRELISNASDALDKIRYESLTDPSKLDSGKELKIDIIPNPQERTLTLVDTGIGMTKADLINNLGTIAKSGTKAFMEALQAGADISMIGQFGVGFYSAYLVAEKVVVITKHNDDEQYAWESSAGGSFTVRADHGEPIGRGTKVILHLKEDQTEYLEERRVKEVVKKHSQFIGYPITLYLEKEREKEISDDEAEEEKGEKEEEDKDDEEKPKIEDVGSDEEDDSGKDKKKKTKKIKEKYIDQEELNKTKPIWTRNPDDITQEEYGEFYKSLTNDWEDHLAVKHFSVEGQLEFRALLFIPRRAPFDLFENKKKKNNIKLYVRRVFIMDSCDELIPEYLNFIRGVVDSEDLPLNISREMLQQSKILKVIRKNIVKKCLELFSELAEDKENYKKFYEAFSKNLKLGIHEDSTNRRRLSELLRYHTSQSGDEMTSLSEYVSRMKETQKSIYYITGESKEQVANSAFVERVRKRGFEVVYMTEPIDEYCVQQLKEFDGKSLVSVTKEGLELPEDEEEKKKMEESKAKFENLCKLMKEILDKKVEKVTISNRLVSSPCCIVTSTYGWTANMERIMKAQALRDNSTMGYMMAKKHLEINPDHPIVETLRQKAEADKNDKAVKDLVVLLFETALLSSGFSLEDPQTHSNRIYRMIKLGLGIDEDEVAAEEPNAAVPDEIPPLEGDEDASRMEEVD
One number for each entry, as −log10 of the molar value.

O=C(O[C@@H]1Cc2c(O)cc(O)cc2O[C@H]1c1cc(O)c(O)c(O)c1)c1cc(O)c(O)c(O)c1 [GALLOCATECHIN GALLATE]; 4.47
O=C(O[C@@H]1Cc2ccccc2O[C@@H]1c1ccccc1)c1cc(O)c(O)c(O)c1 (racemic); 4.46
O=S(=O)(N[C@@H]1Cc2c(O)cc(O)cc2O[C@@H]1c1cc(O)c(O)c(O)c1)c1ccccc1; 4.36

# ---- query compound ----
Prompt line: // pIC50 lookup, key: O=C(O[C@H]1Cc2c(O)cc(O)cc2O[C@@H]1c1ccc(O)c(O)c1)[C@H]1CC[C@@H](O)CC1
Response line: 3.55
